Tested on: SR leukemia
ASSAY METHOD TEXT: NCI tumour cell line growth inhibition, 48 h; in the data active = GI50 below about 0.43 µM; inactive = the rest
Can you answer with just one of these options? active, inactive

Solved entries:
CCN(CC)CCS(=O)(=O)CCNc1ccnc2cc(Cl)ccc12    inactive
O=C(Nc1ccc(Br)cc1)Nc1cccc(Br)c1    inactive
CCOC(=O)c1cc2cc(OCc3ccccc3)ccc2[nH]1    inactive
CCN(CC)Cc1cc(Nc2cc(C(F)(F)F)c(C#N)c3nc4ccccc4n23)ccc1O    inactive
Cc1ccc(NC(=O)c2ccc(NC3=C(Cl)C(=O)N(Cc4ccccc4)C3=O)cc2)cc1Cl    inactive

[ask] In this assay, the call recorded for COC(=O)C1=Nc2ccc(F)cc2/C1=C/c1sc(=S)[nH]c1O was what?
[reply] active

====

System: HL-60(TB) leukemia
ASSAY METHOD TEXT: NCI tumour cell line growth inhibition, 48 h
ASSAY METRIC: TGI (µM)
One number for each entry, in µM.

Example cases with answers are listed next.
O=C1c2ccccc2/C=C\C(c2ccccc2)=N/N1c1ccccc1Cl    54.8
CCN(CC)Cc1cc(Nc2cc(C(F)(F)F)c(C#N)c3nc4ccccc4n23)ccc1O    8.37

Look up TGI for the entries below, preserving their order.
1. CC(=O)Nc1cc(/C=C\C(=O)N2CC(CCl)c3c2cc(N)c2ccccc32)n(C)n1 (centres undefined)
2. O=C(/C=C/c1cccc(Oc2ccc(Cl)cc2)c1)c1ccccc1
3. Nc1ncnc2sc(Nc3ccccc3)nc12
4. CCN(CC)CCS(=O)(=O)CCNc1ccnc2cc(Cl)ccc12

[reply]
[0.0126, 58.4, 64.7, 20]

====

Test system: PC-3 prostate
ASSAY METHOD TEXT: NCI tumour cell line growth inhibition, 48 h; in the data active = GI50 below about 0.43 µM; inactive = the rest
Can you answer with just one of these options? label 1 (active), label 0 (inactive)

Solved entries:
Cc1cn2c(/C=C3/C(=O)Nc4ccc(C(=O)O)cc43)c(C)nc2s1    label 0
O=S(=O)(NCCCNc1nccc(-c2c(-c3cccc(F)c3)nc3occn23)n1)c1cccc2ccccc12    label 0
COC(=O)C1=Nc2ccc(F)cc2/C1=C/c1sc(=S)[nH]c1O    label 1
O=C(Nc1cccc(-n2cc(-c3ccncc3)c(-c3ccc(O)c(Cl)c3)n2)c1)Nc1ccc(Cl)c(Cl)c1    label 0

[ask] In this assay, the call recorded for C=C(C)[C@@H]1CC[C@]2(C(=O)n3ccnc3)CC[C@]3(C)[C@H](CC[C@@H]4[C@@]5(C)CCCNC(C)(C)[C@@H]5CC[C@]43C)[C@@H]12 was what?
[reply] label 0

[ask] In this assay, the call recorded for Oc1ccc(-c2[nH]c3ccccc3c2-c2nc3ccccc3o2)cc1 was what?
[reply] label 0

[ask] In this assay, the call recorded for C=CC[PH+](c1ccccc1)c1ccccc1.C=CC[PH+](c1ccccc1)c1ccccc1.[Pt+2].[S-]c1ncccn1.[S-]c1ncccn1 was what?
[reply] label 0

[ask] In this assay, the call recorded for Cc1nn2c(-c3nc4cc(Cl)c(Cl)cc4[nH]3)c(-c3ccc(F)cc3)nc2s1 was what?
[reply] label 0

[ask] In this assay, the call recorded for CCN(CC)CCS(=O)(=O)CCNc1ccnc2cc(Cl)ccc12 was what?
[reply] label 0

[ask] In this assay, the call recorded for O=C(Nc1nc2c(s1)CCc1c-2c(Br)n(Cc2ccccc2)c1Br)c1ccccc1 was what?
[reply] label 0
